- System: giant foxtail (Setaria faberii)
- ASSAY: Test A pre-/postemergence plant response
- Format: in vivo
- CONDITION DESCRIPTION: Postemergence, 125 g ai/ha; visual injury, 0 to 100 scale (0 no effect, 100 complete control), approx. ten days
Let's look at some compounds and their measured Foxtail, Giant plant response rating.

Sample answers from the record:
SMILES STRING: CCn1ncc(C(=O)c2cnc(-c3ccccc3)n(-c3ccccc3)c2=O)c1OS(=O)(=O)c1ccc(C)cc1
Foxtail, Giant plant response rating: 30

SMILES STRING: Cc1cc(-n2c(-c3ccccc3)ncc(C(=O)C3=C(O)CCCC3=O)c2=O)ccc1F
Foxtail, Giant plant response rating: 90

Data request: Output measured Foxtail, Giant plant response rating for this item: Cc1cc(C)cc(-n2c(-c3ccccc3)ncc(C(=O)C3=C(O)CCCC3=O)c2=O)c1
Data returned: 60

Data request: Query Foxtail, Giant plant response rating for Cc1c(Cl)cccc1-n1c(-c2ccccc2)ncc(C(=O)C2=C(O)CCCC2=O)c1=O
Data returned: 90

###

In this section, each of the compounds is paired with its reported Plant response rating, Blackgrass.
- Test system: blackgrass (Alopecurus myosuroides)
- ASSAY: Test B pre-/postemergence plant response
- Type: in vivo
- CONDITION DESCRIPTION: Preemergence, 31 g ai/ha; scale 0 to 100 (0 no effect, 100 complete control)
- Description: […] Treated plants and controls were maintained in a greenhouse for 13 to 15 days, after which time all treated plants were visually evaluated and compared to controls. […]
Lab note: record just the number, no unit beside it.

Some solved cases for reference:
COMPOUND: Cc1c(Cl)cccc1-n1c(-c2ccccc2)ncc(C(=O)C2=C(O)CCCC2=O)c1=O [Compound 40]
Plant response rating, Blackgrass: 0

COMPOUND: Cc1cccc(Cl)c1-n1c(-c2ccccc2)ncc(C(=O)C2=C(O)CCCC2=O)c1=O [Compound 46]
Plant response rating, Blackgrass: 0

// next entry
Data request: In one line, give reported Plant response rating, Blackgrass of the entry CCCc1ncc(C(=O)C2=C(O)CCCC2=O)c(=O)n1-c1ccccc1C [Compound 73] .
Data returned: 0

###

- Tested on: woolly cupgrass (Eriochloa villosa)
- ASSAY: Test B pre-/postemergence plant response
- Assay type: in vivo
- CONDITION DESCRIPTION: Postemergence, 250 g ai/ha; scale 0 to 100 (0 no effect, 100 complete control)
REPORTED PROPERTY: Plant response rating, Cupgrass, Woolly
Reply briefly: the number, and no unit.

Below: 5 compounds and their reported Plant response rating, Cupgrass, Woolly.
SMILES STRING: O=C1CCCC(O)=C1C(=O)c1cnc(-c2ccccc2Br)n(-c2ccccc2)c1=O
Plant response rating, Cupgrass, Woolly: 100
//
SMILES STRING: O=C1CCCC(OC(=O)C2CC2)=C1C(=O)c1cnc(-c2ccccc2)n(-c2ccccc2)c1=O
Plant response rating, Cupgrass, Woolly: 95
//
SMILES STRING: Cc1ccc(-c2ncc(C(=O)C3=C(O)CCCC3=O)c(=O)n2-c2ccccc2)cc1
Plant response rating, Cupgrass, Woolly: 75
//
SMILES STRING: CCCn1c(-c2cccs2)ncc(C(=O)C2=C(O)CCCC2=O)c1=O
Plant response rating, Cupgrass, Woolly: 40
//
SMILES STRING: Cn1c(-c2ccccc2)ncc(C(=O)C2=C(O)CCCC2=O)c1=O
Plant response rating, Cupgrass, Woolly: 20

Now consider the entry below.
Data request: Kindly indicate its recorded Plant response rating, Cupgrass, Woolly. Item: COCCCn1c(-c2cc(F)cc(F)c2)ncc(C(=O)C2=C(O)CCCC2=O)c1=O
Data returned: 100

###

Form field: Plant response rating, Nightshade (one value per entry).
- System: nightshade (eastern black nightshade, Solanum ptycanthum)
- ASSAY: Test B pre-/postemergence plant response
- Format: in vivo
- CONDITION DESCRIPTION: Preemergence, 62 g ai/ha; scale 0 to 100 (0 no effect, 100 complete control)
API doc: respond with a numeric literal and nothing else, no unit.

COMPOUND: CCCn1c(-c2cccs2)ncc(C(=O)C2=C(O)CCCC2=O)c1=O [Compound 77]
RECORDED VALUE: 98
--
COMPOUND: COc1ccc(-n2c(-c3ccccc3)ncc(C(=O)C3=C(O)CCCC3=O)c2=O)cc1OC [Compound 218]
RECORDED VALUE: 98
--
COMPOUND: Cn1c(-c2ccccc2)ncc(C(=O)C2=C(O)CCCC2=O)c1=O [Compound 55]
RECORDED VALUE: 98
--
COMPOUND: CCCc1ncc(C(=O)C2=C(O)CCCC2=O)c(=O)n1CC1CCCO1 (stereo not shown) [Compound 74]
RECORDED VALUE: 98
--
COMPOUND: CCCCn1c(-c2cc(F)cc(F)c2)ncc(C(=O)C2=C(O)C3CCC(C3)C2=O)c1=O (stereo not shown) [Compound 245]
RECORDED VALUE: 100
--
COMPOUND: CCc1ccc(-n2c(-c3ccccc3)ncc(C(=O)C3=C(O)CCCC3=O)c2=O)cc1 [Compound 219]
RECORDED VALUE: 98

As a next step, examine the compound that follows.
Data request: Give the reported Plant response rating, Nightshade for this compound. CCCCc1ncc(C(=O)C2=C(O)CCCC2=O)c(=O)n1-c1cccc(C)c1 [Compound 63]
Data returned: 95

###

- System: ragweed (common ragweed, Ambrosia elatior)
- ASSAY: Test B pre-/postemergence plant response
- Format: in vivo
- CONDITION DESCRIPTION: Postemergence, 250 g ai/ha; scale 0 to 100 (0 no effect, 100 complete control); 13 to 15 days
REPORTED PROPERTY: Plant response rating, Ragweed
Form: value (number only, do not type unit).

Data request: In one line, give reported Plant response rating, Ragweed of the entry CCCCn1c(-c2cccc(Cl)c2)ncc(C(=O)C2=C(O)CCCC2=O)c1=O [Compound 146] .
Data returned: 98

Data request: Please report the measured Plant response rating, Ragweed for COCCn1c(-c2cccc(Cl)c2)ncc(C(=O)C2=C(O)CCCC2=O)c1=O [Compound 147]
Data returned: 98

Data request: Report Plant response rating, Ragweed for O=C(C1=C(O)C2CCC(C2)C1=O)c1cnc(-c2ccsc2)n(CC2CCCO2)c1=O (centres unmarked) [Compound 229]
Data returned: 95

Data request: Name the recorded Plant response rating, Ragweed of the item O=C1CCCC(O)=C1C(=O)c1cnc(-c2ccccc2)n(C2CCSCC2)c1=O [Compound 164] in your answer.
Data returned: 100

Data request: Provide measured Plant response rating, Ragweed value, entry: CCn1c(-c2ccccc2)ncc(C(=O)C2=C(O)C3CCC(C3)C2=O)c1=O (centres unmarked) [Compound 239]
Data returned: 100

Data request: Give the measured Plant response rating, Ragweed for CCCn1c(-c2cc(F)cc(F)c2)ncc(C(=O)C2=C(O)CCCC2=O)c1=O [Compound 152]
Data returned: 98

Data request: Consider the compound COCCn1c(-c2ccsc2)ncc(C(=O)C2=C(O)C3CCC(C3)C2=O)c1=O (centres unmarked) [Compound 228] and give its recorded Plant response rating, Ragweed.
Data returned: 98

Data request: Recall and state the measured Plant response rating, Ragweed for CCCn1c(-c2cccc(C(F)(F)F)c2)ncc(C(=O)C2=C(O)CCCC2=O)c1=O [Compound 155] .
Data returned: 95

###

- Tested on: soybean (Glycine max)
- ASSAY: Test B pre-/postemergence plant response
- Type: in vivo
- CONDITION DESCRIPTION: Postemergence, 62 g ai/ha; scale 0 to 100 (0 no effect, 100 complete control)
Listed below: Plant response rating, Soybean values for each entry.
Write no unit; give the number alone.

These recorded examples may help you get a feel for the data.
COMPOUND: Cc1cc(-n2c(-c3cccc(F)c3)ncc(C(=O)C3=C(O)CCCC3=O)c2=O)ccc1F
Plant response rating, Soybean: 95
--
COMPOUND: CC1(C)CC(=O)C(C(=O)c2cnc(-c3ccccc3)n(-c3ccccc3)c2=O)=C(O)C1
Plant response rating, Soybean: 95
--
COMPOUND: CCn1c(-c2ccccc2)ncc(C(=O)C2=C(O)C3CCC(C3)C2=O)c1=O (stereo not shown)
Plant response rating, Soybean: 95

Continue with the compound presented below.
Data request: Answer with reported Plant response rating, Soybean of COCCn1c(-c2ccsc2)ncc(C(=O)C2=C(O)C3CCC(C3)C2=O)c1=O (stereo not shown)
Data returned: 98

###

- Tested on: yellow nutsedge (Cyperus esculentus)
- ASSAY: Test B pre-/postemergence plant response
- Assay type: in vivo
- CONDITION DESCRIPTION: Preemergence, 125 g ai/ha; scale 0 to 100, 0 no effect, 100 complete control
In this section we review reported Plant response rating, Nutsedge, Yellow values for a set of compounds.
Could you respond with only the numeric value?

Record excerpt, results attached:
COMPOUND: COc1ccc(-n2c(-c3ccccc3)ncc(C(=O)C3=C(O)CCCC3=O)c2=O)cc1OC [Compound 218]
Plant response rating, Nutsedge, Yellow: 90
--
COMPOUND: CCCc1ncc(C(=O)C2=C(O)CCCC2=O)c(=O)n1CC1CCCO1 (stereo not shown) [Compound 74]
Plant response rating, Nutsedge, Yellow: 65
--
COMPOUND: Cc1cc(-n2c(-c3ccccc3)ncc(C(=O)C3=C(O)CCCC3=O)c2=O)ccc1F [Compound 53]
Plant response rating, Nutsedge, Yellow: 90
--
COMPOUND: O=C1CCCC(O)=C1C(=O)c1cnc(-c2ccsc2)n(-c2ccccc2)c1=O [Compound 56]
Plant response rating, Nutsedge, Yellow: 85
--
COMPOUND: COCCCn1c(-c2cc(F)cc(F)c2)ncc(C(=O)C2=C(O)CCCC2=O)c1=O [Compound 120]
Plant response rating, Nutsedge, Yellow: 98

Data request: Indicate its recorded Plant response rating, Nutsedge, Yellow; the compound in question is CCCCc1ncc(C(=O)C2=C(O)CCCC2=O)c(=O)n1-c1ccc(C)cc1 [Compound 67]
Data returned: 65

Data request: Complete the entry with Plant response rating, Nutsedge, Yellow for Cn1c(-c2ccccc2)ncc(C(=O)C2=C(O)CCCC2=O)c1=O [Compound 55]
Data returned: 45
